Conditions: 480 K; Liquid
Note to self: vapor or sublimation pressure under 0.005 kPa means Satisfied, ties and anything higher get Not satisfied.

Is vapor or sublimation pressure strictly under 0.005 kPa for the entry CCCCCCCCCCCCCCCCCCCCCCCCCCCCCCCCCC ?
Not satisfied

Is vapor or sublimation pressure strictly under 0.005 kPa for the entry CCCCCCCCCCCCCCCCCCCCCCCCCCCCCCCCCCCCCC ?
Satisfied

Is vapor or sublimation pressure strictly under 0.005 kPa for the entry CCCCCCCCCCCCCCCCCCCCCCCCCCCCCCC ?
Not satisfied

Is vapor or sublimation pressure strictly under 0.005 kPa for the entry CCCCCCCCCCCCCCCCCCCCCCCCCCCCCCCCC ?
Not satisfied

Is vapor or sublimation pressure strictly under 0.005 kPa for the entry CCCCCCCCCCCCCCCCCCCCCCCCCCCCCCCCCCCC ?
Satisfied

Is vapor or sublimation pressure strictly under 0.005 kPa for the entry CCCCCCCCCCCCCCCCCCCCCCCCCCCCCCCC ?
Not satisfied

Is vapor or sublimation pressure strictly under 0.005 kPa for the entry CCCCCCCCCCCCCCCCCCCCCCCCCCCCCCCCCCC ?
Satisfied

Is vapor or sublimation pressure strictly under 0.005 kPa for the entry CCCCCCCCCCCCCCCCCCCCCCCCCCCCCCCCCCCCC ?
Satisfied

====

Details: 490 K; Liquid
Task for the reader: assign each of the following molecules its reported vapor or sublimation pressure.
Numeric only. Scale: kPa

Please indicate vapor or sublimation pressure recorded for CCCCCCCCCCCCCCCCCCCCCCCCCCCCCCCCCC
0.01

Please indicate vapor or sublimation pressure recorded for CCCCCCCCCCCCCCCCCCCCCCCCCCCCCCCCC
0.015

Please indicate vapor or sublimation pressure recorded for CCCCCCCCCCCCCCCCCCCCCCCCCCCCCCCCCCCCC
0.0031

Please indicate vapor or sublimation pressure recorded for CCCCCCCCCCCCCCCCCCCCCCCCCCCCCCCCCCCCCC
0.00212

Please indicate vapor or sublimation pressure recorded for CCCCCCCCCCCCCCCCCCCCCCCCCCCCCCCC
0.0224

Please indicate vapor or sublimation pressure recorded for CCCCCCCCCCCCCCCCCCCCCCCCCCCCCCCCCCC
0.00673

Please indicate vapor or sublimation pressure recorded for CCCCCCCCCCCCCCCCCCCCCCCCCCCCCCCCCCCC
0.00467

Please indicate vapor or sublimation pressure recorded for CCCCCCCCCCCCCCCCCCCCCCCCCCCCCCC
0.0336

====

Conditions: 470 K; Liquid
# binarize vapor or sublimation pressure: threshold 0.004 kPa inclusive, high side Y, low side N

Is vapor or sublimation pressure for CCCCCCCCCCCCCCCCCCCCCCCCCCCCCCCCCCCC [hexatriacontane] at or above 0.004 kPa?
N

Is vapor or sublimation pressure for CCCCCCCCCCCCCCCCCCCCCCCCCCCCCCCC [dotriacontane] at or above 0.004 kPa?
Y

Is vapor or sublimation pressure for CCCCCCCCCCCCCCCCCCCCCCCCCCCCCCCCCCC [pentatriacontane] at or above 0.004 kPa?
N

Is vapor or sublimation pressure for CCCCCCCCCCCCCCCCCCCCCCCCCCCCCCCCC [tritriacontane] at or above 0.004 kPa?
Y

Is vapor or sublimation pressure for CCCCCCCCCCCCCCCCCCCCCCCCCCCCCCCCCCCCCC [octatriacontane] at or above 0.004 kPa?
N

====

Conditions: 470 K; Liquid
Property Measured: vapor or sublimation pressure (kPa)
Numeric only. Scale: kPa

Please indicate vapor or sublimation pressure recorded for CCCCCCCCCCCCCCCCCCCCCCCCCCCCCCC
0.01

Please indicate vapor or sublimation pressure recorded for CCCCCCCCCCCCCCCCCCCCCCCCCCCCCCCCCC
0.00266

Please indicate vapor or sublimation pressure recorded for CCCCCCCCCCCCCCCCCCCCCCCCCCCCCCCCCCCCC
0.000735

====

Settings: 390 K; Liquid
Task for the reader: assign each of the following molecules its reported vapor or sublimation pressure.
Numeric only. Scale: kPa

Please indicate vapor or sublimation pressure recorded for CCCCCCCCCCCCCCCCCCCCCCCCCCCCCCCCCCCC
5.12e-07

Please indicate vapor or sublimation pressure recorded for CCCCCCCCCCCCCCCCCCCCCCCCCCCCCCCCCCCCC
2.65e-07

Please indicate vapor or sublimation pressure recorded for CCCCCCCCCCCCCCCCCCCCCCCCCCCCCCCCC
3.49e-06

Please indicate vapor or sublimation pressure recorded for CCCCCCCCCCCCCCCCCCCCCCCCCCCCCCCCCC
1.8e-06

Please indicate vapor or sublimation pressure recorded for CCCCCCCCCCCCCCCCCCCCCCCCCCCCCCCC
6.71e-06

====

Details: 320 K; Liquid
Numbers after ± are expanded uncertainties.
Task for the reader: assign each of the following molecules its reported vapor or sublimation pressure.

Please indicate vapor or sublimation pressure recorded for CCCCCCCCCCCCCCCCCCCCCCCCCCCCCCCCCCCCC
2.43e-12 ± 7.3e-13 kPa

Please indicate vapor or sublimation pressure recorded for CCCCCCCCCCCCCCCCCCCCCCCCCCCCCCCCCCCC
6.41e-12 ± 1.9e-12 kPa

Please indicate vapor or sublimation pressure recorded for CCCCCCCCCCCCCCCCCCCCCCCCCCCCCCCCCCC
1.53e-11 ± 4.6e-12 kPa

Please indicate vapor or sublimation pressure recorded for CCCCCCCCCCCCCCCCCCCCCCCCCCCCCCCCC
1.11e-10 ± 2.2e-11 kPa

Please indicate vapor or sublimation pressure recorded for CCCCCCCCCCCCCCCCCCCCCCCCCCCCCCC
7.88e-10 ± 1.6e-10 kPa

Please indicate vapor or sublimation pressure recorded for CCCCCCCCCCCCCCCCCCCCCCCCCCCCCCCCCC
4.16e-11 ± 8.3e-12 kPa

Please indicate vapor or sublimation pressure recorded for CCCCCCCCCCCCCCCCCCCCCCCCCCCCCCCCCCCCCC
9.59e-13 ± 2.9e-13 kPa

Please indicate vapor or sublimation pressure recorded for CCCCCCCCCCCCCCCCCCCCCCCCCCCCCCCC
2.95e-10 ± 5.9e-11 kPa

====

Settings: 330 K; Liquid
Property Measured: vapor or sublimation pressure (kPa)
Numeric only. Scale: kPa

Please indicate vapor or sublimation pressure recorded for CCCCCCCCCCCCCCCCCCCCCCCCCCCCCCCCCC
2.75e-10

Please indicate vapor or sublimation pressure recorded for CCCCCCCCCCCCCCCCCCCCCCCCCCCCCCCCCCC
1.07e-10

Please indicate vapor or sublimation pressure recorded for CCCCCCCCCCCCCCCCCCCCCCCCCCCCCCCC
1.74e-09

Please indicate vapor or sublimation pressure recorded for CCCCCCCCCCCCCCCCCCCCCCCCCCCCCCCCCCCC
4.72e-11

====

Task for the reader: assign each of the following molecules its reported vapor or sublimation pressure.
Settings: 350 K; Liquid
Numeric only. Scale: kPa

Please indicate vapor or sublimation pressure recorded for CCCCCCCCCCCCCCCCCCCCCCCCCCCCCCC
9.39e-08

Please indicate vapor or sublimation pressure recorded for CCCCCCCCCCCCCCCCCCCCCCCCCCCCCCCCCCCCC
7.35e-10

Please indicate vapor or sublimation pressure recorded for CCCCCCCCCCCCCCCCCCCCCCCCCCCCCCCCCCC
3.46e-09

The measured values listed here are drawn from the NIST ThermoML archive (doi:10.1021/je030236t).
